target: IKZF2 (Homo sapiens (Human), UniProt Q96SW2+Q9UKS7); assay: IKZF2 HiBiT Assay (Jurkat-IKZF2-HiBiT cell line); assay type: cell-based; details: Jurkat-IKZF2-HiBiT cells, 24 hours; read-out: HiBit assay degradation analysis Dmax
Sequence (Q9UKS7 whole entry): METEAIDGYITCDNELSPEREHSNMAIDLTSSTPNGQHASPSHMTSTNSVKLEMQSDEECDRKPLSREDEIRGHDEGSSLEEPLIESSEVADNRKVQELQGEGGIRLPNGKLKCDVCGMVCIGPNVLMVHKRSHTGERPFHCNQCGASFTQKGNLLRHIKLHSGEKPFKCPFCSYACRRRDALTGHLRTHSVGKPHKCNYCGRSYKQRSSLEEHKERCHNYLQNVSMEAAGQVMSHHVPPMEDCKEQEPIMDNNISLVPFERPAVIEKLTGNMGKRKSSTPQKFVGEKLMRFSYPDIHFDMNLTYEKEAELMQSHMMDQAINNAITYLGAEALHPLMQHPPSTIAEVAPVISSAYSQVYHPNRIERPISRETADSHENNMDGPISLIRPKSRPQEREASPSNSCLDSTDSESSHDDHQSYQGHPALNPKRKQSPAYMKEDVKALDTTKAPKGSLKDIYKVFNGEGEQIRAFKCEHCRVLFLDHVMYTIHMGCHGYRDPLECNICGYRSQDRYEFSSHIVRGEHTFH
Sequence (Q96SW2 whole entry): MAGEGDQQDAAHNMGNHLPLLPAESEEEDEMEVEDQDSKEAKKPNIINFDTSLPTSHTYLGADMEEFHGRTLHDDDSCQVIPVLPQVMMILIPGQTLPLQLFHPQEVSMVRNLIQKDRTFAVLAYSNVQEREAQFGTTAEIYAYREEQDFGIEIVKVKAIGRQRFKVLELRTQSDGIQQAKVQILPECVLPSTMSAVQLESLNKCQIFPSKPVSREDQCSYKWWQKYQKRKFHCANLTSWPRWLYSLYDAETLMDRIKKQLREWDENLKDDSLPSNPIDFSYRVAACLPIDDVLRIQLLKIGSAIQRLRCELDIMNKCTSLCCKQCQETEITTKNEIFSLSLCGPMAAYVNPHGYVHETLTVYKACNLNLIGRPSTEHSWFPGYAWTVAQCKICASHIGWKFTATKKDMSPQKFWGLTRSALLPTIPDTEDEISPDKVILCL
Sequence (Q16531 whole entry partner): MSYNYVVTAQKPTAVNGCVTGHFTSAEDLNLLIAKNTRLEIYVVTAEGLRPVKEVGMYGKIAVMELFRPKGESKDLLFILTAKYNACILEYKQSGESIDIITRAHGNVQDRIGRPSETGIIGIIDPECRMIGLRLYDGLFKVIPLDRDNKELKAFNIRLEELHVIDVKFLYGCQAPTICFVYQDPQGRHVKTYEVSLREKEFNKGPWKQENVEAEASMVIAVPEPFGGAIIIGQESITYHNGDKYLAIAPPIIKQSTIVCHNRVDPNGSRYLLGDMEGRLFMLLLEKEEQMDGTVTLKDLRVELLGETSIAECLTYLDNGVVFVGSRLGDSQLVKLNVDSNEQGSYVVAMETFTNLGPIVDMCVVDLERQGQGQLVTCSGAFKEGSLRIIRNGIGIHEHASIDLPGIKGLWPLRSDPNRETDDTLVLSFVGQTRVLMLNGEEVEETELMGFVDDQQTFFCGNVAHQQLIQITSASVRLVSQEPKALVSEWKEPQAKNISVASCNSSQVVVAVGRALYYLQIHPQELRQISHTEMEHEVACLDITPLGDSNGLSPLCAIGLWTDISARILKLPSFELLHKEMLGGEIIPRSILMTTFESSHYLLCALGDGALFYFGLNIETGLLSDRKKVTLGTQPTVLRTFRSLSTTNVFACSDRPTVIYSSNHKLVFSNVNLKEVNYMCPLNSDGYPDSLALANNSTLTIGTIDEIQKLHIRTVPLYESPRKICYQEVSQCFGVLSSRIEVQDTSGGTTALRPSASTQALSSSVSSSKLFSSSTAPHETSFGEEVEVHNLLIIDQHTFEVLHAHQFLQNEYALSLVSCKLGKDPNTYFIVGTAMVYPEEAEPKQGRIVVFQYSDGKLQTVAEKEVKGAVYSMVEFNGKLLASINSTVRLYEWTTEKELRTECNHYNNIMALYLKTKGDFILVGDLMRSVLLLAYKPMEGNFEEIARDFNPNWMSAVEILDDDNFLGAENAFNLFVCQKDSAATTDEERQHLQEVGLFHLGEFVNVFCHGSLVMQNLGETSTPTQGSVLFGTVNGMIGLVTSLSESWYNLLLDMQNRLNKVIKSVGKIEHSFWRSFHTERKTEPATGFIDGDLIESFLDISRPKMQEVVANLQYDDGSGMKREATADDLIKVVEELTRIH
Measurement name: Dmax

> print(dat)
                                   molecule  reported.measurement
1  O=C1CCC(N2Cc3c(ccc4c3OCC43CCN(Cc4cccc(Cn5cccn5)c4)CC3)C2=O)C(=O)N1 (stereo not shown) [Compound A126]             40 to 60%
2  O=C1CCC(N2Cc3c(ccc4c3OCC43CCN(Cc4cccnc4Cl)CC3)C2=O)C(=O)N1 (stereo not shown) [Compound A249]                 < 40%
3  O=C1CCC(N2Cc3c(ccc4c3OCC43CCN(Cc4ncsc4-c4ccccc4)CC3)C2=O)C(=O)N1 (stereo not shown) [Compound A158]                 < 40%
4  O=C1CCC(N2Cc3c(ccc4c3OCC43CCN(Cc4cccc(C(=O)O)c4)CC3)C2=O)C(=O)N1 (stereo not shown) [Compound A99]                 < 40%
5  O=C1CCC(N2Cc3c(ccc4c3OCC43CCN(Cc4cnn(CC5COC5)c4)CC3)C2=O)C(=O)N1 (stereo not shown) [Compound A319]                 < 40%
6  O=C1CCC(N2Cc3c(ccc4c3OCC43CCN(Cc4cccc(-c5ccccn5)c4)CC3)C2=O)C(=O)N1 (stereo not shown) [Compound A103]             40 to 60%

Please look at this molecule and report its Dmax: O=C1CCC(N2Cc3c(ccc4c3OCC43CCN(CC4CCN(c5ccccc5)CC4)CC3)C2=O)C(=O)N1 (stereo not shown) [Compound A123]
40 to 60%

Please look at this molecule and report its Dmax: COc1ccccc1CN1CCC2(CC1)COc1c2ccc2c1CN(C1CCC(=O)NC1=O)C2=O (stereo not shown) [Compound A215]
40 to 60%

Please look at this molecule and report its Dmax: Cc1cc2c(CN3CCC4(CC3)COc3c4ccc4c3CN(C3CCC(=O)NC3=O)C4=O)cccc2[nH]1 (stereo not shown) [Compound A121]
60 to 80%

Please look at this molecule and report its Dmax: N#CCc1ccc(CN2CCC3(CC2)COc2c3ccc3c2CN(C2CCC(=O)NC2=O)C3=O)cc1 (stereo not shown) [Compound A196]
60 to 80%

Please look at this molecule and report its Dmax: O=C1CCC(N2Cc3c(ccc4c3OCC43CCN(Cc4ccc(-c5ccccc5)cc4)CC3)C2=O)C(=O)N1 (stereo not shown) [Compound A25]
40 to 60%

Please look at this molecule and report its Dmax: [2H]C([2H])([2H])n1ncc2ccc(CN3CCC4(CC3)COc3c4ccc4c3CN([C@H]3CCC(=O)NC3=O)C4=O)cc21 [Compound A300]
60 to 80%

Please look at this molecule and report its Dmax: O=C1CCC(N2Cc3c(ccc4c3OCC43CCN(Cc4ccc(S(=O)(=O)c5ccccc5)cc4)CC3)C2=O)C(=O)N1 (stereo not shown) [Compound A340]
40 to 60%

Please look at this molecule and report its Dmax: CN1CC2(CCN(Cc3cccc(-c4cnn(C)c4)c3)CC2)c2ccc3c(c21)CN(C1CCC(=O)NC1=O)C3=O (stereo not shown) [Compound A308]
< 40%

Please look at this molecule and report its Dmax: Cn1ccc(COc2cccc(CN3CCC4(CC3)COc3c4ccc4c3CN(C3CCC(=O)NC3=O)C4=O)c2)n1 (stereo not shown) [Compound A167]
40 to 60%

Please look at this molecule and report its Dmax: O=C1CCC(N2Cc3c(ccc4c3OCC43CCN(Cc4ccc5cc[nH]c5c4)CC3)C2=O)C(=O)N1 (stereo not shown) [Compound A129]
60 to 80%

Please look at this molecule and report its Dmax: O=C1CCC(N2Cc3c(ccc4c3OCC43CCN(Cc4cc(Br)cc5[nH]ncc45)CC3)C2=O)C(=O)N1 (stereo not shown) [Compound A127]
40 to 60%

Please look at this molecule and report its Dmax: O=C1CCC(N2Cc3c(ccc4c3OCC43CCN(Cc4nccc5c4CCCC5)CC3)C2=O)C(=O)N1 (stereo not shown) [Compound A324]
40 to 60%

Please look at this molecule and report its Dmax: O=C1CC[C@H](N2Cc3c(ccc4c3OCC43CCN(CC4CCCN(C(=O)c5ccccc5)C4)CC3)C2=O)C(=O)N1 (stereo partly shown) [Compound A305]
40 to 60%

Please look at this molecule and report its Dmax: O=C1CCC(N2Cc3c(ccc4c3OCC43CCN(Cc4cnn(-c5cccc(Cl)c5)c4)CC3)C2=O)C(=O)N1 (stereo not shown) [Compound A313]
60 to 80%

Please look at this molecule and report its Dmax: O=C1CCC(N2Cc3c(ccc4c3OCC43CCN(Cc4cccc5ccccc45)CC3)C2=O)C(=O)N1 (stereo not shown) [Compound A27]
> 80%

Please look at this molecule and report its Dmax: O=C1CC[C@H](N2Cc3c(ccc4c3OCC43CCN(Cc4ccc5cc[nH]c5c4)CC3)C2=O)C(=O)N1 [Compound A172]
60 to 80%

Please look at this molecule and report its Dmax: O=C1CCC(N2Cc3c(ccc4c3OCC43CCN(Cc4cccc5cccnc45)CC3)C2=O)C(=O)N1 (stereo not shown) [Compound A41]
60 to 80%

Please look at this molecule and report its Dmax: O=C1CC[C@H](N2Cc3c(ccc4c3OCC43CCN(Cc4cnn(S(=O)(=O)c5cccc(Cl)c5)c4)CC3)C2=O)C(=O)N1 [Compound A350]
60 to 80%

Please look at this molecule and report its Dmax: CCc1ccc(CN2CCC3(CC2)COc2c3ccc3c2CN(C2CCC(=O)NC2=O)C3=O)cc1 (stereo not shown) [Compound A16]
< 40%

Hey, just so you know, these numbers are from patent US20250215012A1.
